- Test system: molds and blue-stain fungi
- Test method notes: In vitro activity against molds and blue-stain fungi, poison plate assay (MIC)
- Format: cell-based
- Experimental context: Aureobasidium pullulans, A. pullulans, malt extract agar, complete inhibition, read-out: MIC (ppm) against A. pullulans
Property measured: MIC (mg/L)
Give bare numbers, in mg/L.

For the 3 molecules below, give their MIC values.
1. [O-][S+]1CCON=C1c1nc2ccccc2s1 (stereo not shown)
2. C[S+]1CCON=C1c1cc(Cl)cc(Cl)c1 (stereo not shown)
3. O=S1(=O)CCON=C1c1ccc(Cl)s1

Result:
1: 25; 2: 25; 3: 10

* * *

- Test system: Coniophora puteana
- Test method notes: Wood preservative efficacy against fungi, agar plate colony diameter
- Type: cell-based
- Design: key: 0 = no fungal growth, 1-3 = 25/50/75% of untreated, 4 = equal
- Experimental context: Test dosage 10 ppm, Table 6A
Property measured: Score of fungicidal activity, C. PUTEANA

Ask: Provide the reported Score of fungicidal activity, C. PUTEANA (system: Coniophora puteana) for [O-][S+]1CCON=C1c1ccc(Cl)c(Cl)c1 (stereo not shown)
Result: 0

* * *

- System: mixed spore suspension: Aureobasidium pullulans, Aspergillus amstelodami, Ceratocystis pilifera, Cladosporium sp., Penicillium sp., Sclerophomas entoxylina …
- Test method notes: Control of molds and sapstain fungi in mini-board test
- Design: key: 0: Free of fungal growth; 1: Traces of fungal growth; 2: Little fungal growth; 3: Moderate fungal growth; 4: Vigorous to maximum growth (all surfaces covered with fungal growth)
- Experimental context: 1500 ppm; 3 week incubation
Property measured: Surface score of treated mini-boards, 3 week incubation, 1500 ppm
One number for each entry.

// known answers, use as guide
{"Compound": "O=S1(=O)CCON=C1c1cccs1", "Observed result": 0}
{"Compound": "O=S1(=O)CCON=C1c1cc(Br)cs1", "Observed result": 0}
{"Compound": "Cc1ccsc1C1=NOCCS1(=O)=O", "Observed result": 0}

For the 5 compounds below, give their Surface score of treated mini-boards, 3 week incubation, 1500 ppm values.
1. O=S1(=O)CCON=C1c1ccsc1
2. Cc1ccc(C2=NOCCS2(=O)=O)s1
3. [O-][S+]1CCON=C1c1cccs1 (centres unmarked)
4. [O-][S+]1CCON=C1c1ccsc1 (centres unmarked)
5. [O-][S+]1CCON=C1c1cc(Br)cs1 (centres unmarked)

Result:
1: 0.2; 2: 0; 3: 0; 4: 1.0; 5: 0.6

For the 3 compounds below, give their Surface score of treated mini-boards, 3 week incubation, 1500 ppm values.
1. [O-][S+]1CCON=C1c1ccc(Br)s1 (centres unmarked)
2. O=S1(=O)CCON=C1c1ccc(Br)s1
3. Cc1ccc(C2=NOCC[S+]2[O-])s1 (centres unmarked)

Result:
1: 0.2; 2: 0.6; 3: 0

* * *

- Tested on: blue-stain fungi and molds
- Test method notes: Activity against blue-stain fungi and molds in a stick test (threshold concentrations)
- Experimental context: Sclerophoma; minimum concentration to obtain score 1-2; beech sticks, 22° C., 90% relative humidity
Can you tell me Threshold concentration (ppm), Sclerophoma, score 1-2 for the items I'm about to list?

// known answers, use as guide
{"Compound": "Cc1ccc2oc(C3=NOCC[S+]3[O-])nc2c1 (stereo not shown)", "Observed result": "<50 ppm"}
{"Compound": "CC1C[S+]([O-])C(c2cccs2)=NO1 (stereo not shown)", "Observed result": "50-100 ppm"}
{"Compound": "CC1CS(=O)(=O)C(c2cccs2)=NO1 (stereo not shown)", "Observed result": "50-100 ppm"}
{"Compound": "CCOC(=O)c1ccc(C2=NOCC[S+]2[O-])s1 (stereo not shown)", "Observed result": "<50 ppm"}
{"Compound": "[O-][S+]1CCON=C1c1ccc(Cl)s1 (stereo not shown)", "Observed result": "<50 ppm"}
{"Compound": "N#Cc1ccc(C2=NOCC[S+]2[O-])s1 (stereo not shown)", "Observed result": "<50 ppm"}
{"Compound": "O=S1(=O)CCON=C1c1cccs1", "Observed result": "<50 ppm"}
{"Compound": "N#Cc1ccc(C2=NOCCS2(=O)=O)s1", "Observed result": "<50 ppm"}

For the 2 compounds below, give their Threshold concentration (ppm), Sclerophoma, score 1-2 values.
1. [O-][S+]1CCON=C1c1cc2ccccc2s1 (stereo not shown)
2. [O-][S+]1CCON=C1c1cccs1 (stereo not shown)

Result:
["50-100 ppm", "50-100 ppm"]

For the 3 compounds below, give their Threshold concentration (ppm), Sclerophoma, score 1-2 values.
1. O=S1(=O)CCON=C1c1ccc(Cl)s1
2. [O-][S+]1CCON=C1c1nc2ccccc2s1 (stereo not shown)
3. [O-][S+]1CCON=C1c1nc2ccccc2o1 (stereo not shown)

Result:
["<50 ppm", "<50 ppm", "<50 ppm"]

* * *

Can you tell me Threshold value in stick test, A[…] for the items I'm about to list?
- System: Aspergillus niger
- Test method notes: Control of molds and blue stain fungi in stick test (beech sticks)
- Experimental context: minimum concentration producing a score less than or equal to 1; dosages 250-5000 ppm

// known answers, use as guide
{"Molecule": "C[S+]1CCON=C1c1cc(Cl)cc(Cl)c1 (centres unmarked) [Compound 19]", "Observed result": "250-500 ppm"}
{"Molecule": "[O-][S+]1CCON=C1c1cccs1 (centres unmarked) [Compound 8]", "Observed result": "250-500 ppm"}
{"Molecule": "[O-][S+]1CCON=C1c1ccc(Cl)c(Cl)c1 (centres unmarked) [Compound 4]", "Observed result": "250-500 ppm"}
{"Molecule": "C[S+]1CCON=C1c1ccc(C(F)(F)F)cc1 (centres unmarked) [Compound 25]", "Observed result": "<250 ppm"}

Alright, here's another molecule for you.
Ask: Provide the reported Threshold value in stick test, A[…] (system: Aspergillus niger) for C[S+]1CCON=C1c1ccc(Cl)cc1 (centres unmarked) [Compound 1]
Result: 1000-2500 ppm

* * *

Can you tell me MIC for the items I'm about to list?
- Tested on: molds and blue-stain fungi
- Test method notes: In vitro activity against molds and blue-stain fungi, poison plate assay (MIC)
- Type: cell-based
- Experimental context: Geotrichum candidum, G. candidum, malt extract agar, complete inhibition, read-out: MIC (ppm) against G. candidum

{"Compound": "[O-][S+]1CCON=C1c1nc2ccccc2s1 (stereo not shown)", "Assayed target": "molds and blue-stain fungi", "Observed result": "10 µg/mL"}
{"Compound": "C[S+]1CCON=C1c1cc(Cl)cc(Cl)c1 (stereo not shown)", "Assayed target": "molds and blue-stain fungi", "Observed result": "> 25 µg/mL"}
{"Compound": "O=S1(=O)CCON=C1c1nc2ccccc2s1", "Assayed target": "molds and blue-stain fungi", "Observed result": "> 25 µg/mL"}

Alright, here's another compound for you.
Ask: Specify reported MIC for the compound shown: `O=S1(=O)CCON=C1c1ccc(Cl)s1`
Result: 10 µg/mL

* * *

Can you tell me Threshold concentration (ppm), A. niger, score 1-2 for the items I'm about to list?
- System: blue-stain fungi and molds
- Test method notes: Activity against blue-stain fungi and molds in a stick test (threshold concentrations)
- Experimental context: A. niger; minimum concentration to obtain score 1-2; beech sticks, 22° C., 90% relative humidity

// known answers, use as guide
{"Compound": "[O-][S+]1CCON=C1c1nc2ccccc2o1 (stereo not shown)", "Observed result": "250-500 ppm"}
{"Compound": "CC1C[S+]([O-])C(c2cccs2)=NO1 (stereo not shown)", "Observed result": "250-500 ppm"}
{"Compound": "CCOC(=O)c1ccc(C2=NOCC[S+]2[O-])s1 (stereo not shown)", "Observed result": "<250 ppm"}
{"Compound": "N#Cc1ccc(C2=NOCC[S+]2[O-])s1 (stereo not shown)", "Observed result": "<250 ppm"}
{"Compound": "[O-][S+]1CCON=C1c1ccc(Cl)s1 (stereo not shown)", "Observed result": "<250 ppm"}

For the 3 compounds below, give their Threshold concentration (ppm), A. niger, score 1-2 values.
1. [O-][S+]1CCON=C1c1cccs1 (stereo not shown)
2. O=S1(=O)CCON=C1c1cccs1
3. N#Cc1ccc(C2=NOCCS2(=O)=O)s1

Result:
250-500 ppm
<250 ppm
<250 ppm

For the 4 compounds below, give their Threshold concentration (ppm), A. niger, score 1-2 values.
1. [O-][S+]1CCON=C1c1cc2ccccc2s1 (stereo not shown)
2. Cc1ccc2oc(C3=NOCC[S+]3[O-])nc2c1 (stereo not shown)
3. [O-][S+]1CCON=C1c1nc2ccccc2s1 (stereo not shown)
4. O=S1(=O)CCON=C1c1ccc(Cl)s1

Result:
["250-500 ppm", "250-500 ppm", "<250 ppm", "<250 ppm"]

Ask: Specify reported Threshold concentration (ppm), A. niger, score 1-2 for the compound shown: CC1CS(=O)(=O)C(c2cccs2)=NO1 (stereo not shown)
Result: 250-500 ppm
